Tested on: ACHN renal
procedure_text: NCI tumour cell line growth inhibition, 48 h

[
  {
    "structure_string": "COc1ccc(C(=O)NCCC2=CCCCC2)cc1",
    "study_target": "ACHN renal",
    "TGI": "> 100 µM"
  },
  {
    "structure_string": "N#Cc1c(-c2ccc(Cl)cc2)cc(-c2ccc(Nc3ccnc4cc(Cl)ccc34)cc2)nc1N",
    "study_target": "ACHN renal",
    "TGI": "> 100 µM"
  },
  {
    "structure_string": "CCOC(=O)Cn1c(=O)[nH]c(=O)c2c1ncn2Cc1ccccc1",
    "study_target": "ACHN renal",
    "TGI": "> 100 µM"
  }
]

---

Tested on: HL-60(TB) leukemia
procedure_text: NCI tumour cell line growth inhibition, 48 h; in the data active = GI50 below about 0.43 µM; inactive = the rest
Outcome codes: 1 for active, -1 for inactive

[
  {
    "compound": "O=C(/C=C/c1ccc(Cl)cc1)c1ccc(Cl)c(Cl)c1",
    "study_target": "HL-60(TB) leukemia",
    "class": -1
  },
  {
    "compound": "C[C@H]1CCC/C=C/[C@@H]2C[C@H](O)C[C@H]2[C@H](O)[C@@H](S(=O)C[C@@H](N)C(=O)O)CC(=O)O1 (stereo partly specified)",
    "study_target": "HL-60(TB) leukemia",
    "class": 1
  },
  {
    "compound": "O=C1C(Br)=CC2C1C1C3CCC3C2(Br)C12OCCO2 (stereo unspecified)",
    "study_target": "HL-60(TB) leukemia",
    "class": -1
  },
  {
    "compound": "CCN(CC)c1ccc(/C=N/NC(=O)c2ccc(S(C)(=O)=O)cc2)c(O)c1",
    "study_target": "HL-60(TB) leukemia",
    "class": 1
  },
  {
    "compound": "CCCCCCCCCC(CCCC(O)CC(=O)O)OC1OC(COC2OC(C)C(O)C(O)C2O)C(O)C(O)C1OC1OC(CO)C(O)C(O)C1OC1OC(C)C(OC(=O)CC(C)C)C(O)C1O (stereo unspecified)",
    "study_target": "HL-60(TB) leukemia",
    "class": -1
  },
  {
    "compound": "O=C1NC(=NCc2ccccc2Br)S/C1=C\\c1ccc2ncccc2c1",
    "study_target": "HL-60(TB) leukemia",
    "class": -1
  }
]

---

Tested on: DU-145 prostate
procedure_text: NCI tumour cell line growth inhibition, 48 h; in the data active = GI50 below about 0.43 µM; inactive = the rest
Outcome codes: active, inactive

[
  {
    "structure_string": "Clc1ccc(Nc2nnc(CNc3ccccc3)c3ccccc23)cc1",
    "class": "inactive"
  },
  {
    "structure_string": "O=C(/C=C/c1cccs1)c1ccc(Cl)cc1Cl",
    "class": "inactive"
  },
  {
    "structure_string": "COc1cccc2c1C(=O)c1c(O)c3c(c(O)c1C2=O)C[C@@](O)(C(C)=O)C[C@@H]3O[C@H]1C[C@H](N)[C@H](O)[C@H](C)O1",
    "class": "active"
  },
  {
    "structure_string": "O=C1/C(=C\\c2ccc(Cl)cc2)CCOc2c1ccc1ccccc21",
    "class": "inactive"
  },
  {
    "structure_string": "C=CCNCCN1C(=O)c2ccc3c4c(ccc(c24)C1=O)C(=O)N(CCNCC=C)C3=O",
    "class": "inactive"
  },
  {
    "structure_string": "CS(=O)(=O)CCN(CC#N)Cc1ccc(-c2ccc3ncnc(Nc4ccc(OCc5cccc(F)c5)c(Cl)c4)c3c2)o1",
    "class": "inactive"
  },
  {
    "structure_string": "CCN1C(C)(C)CC(Oc2ccc(C(=O)Nc3ccc(NC(=O)Nc4cc(C(C)(C)C)on4)cc3)nc2)CC1(C)C",
    "class": "inactive"
  }
]
